Listing of entries alongside the reported TGI.
Tested on: MCF7 breast
TEST SUMMARY: NCI tumour cell line growth inhibition, 48 h
READOUT NAME: TGI

COMPOUND: CC[C@@]1(O)C(=O)NCc2c1cc1n(c2=O)Cc2cc3cc4c(cc3nc2-1)OCO4
READOUT NAME: TGI
REPORTED VALUE: > 100 µM
//
COMPOUND: CC1C2CC(C(C3C(=O)C4CC3C(C)(C)C4C)C2=O)C1(C)C (stereo not drawn)
READOUT NAME: TGI
REPORTED VALUE: > 100 µM
//
COMPOUND: COc1ncnc2c(NC3OC(CO)C(O)C3O)ncnc12 (stereo not drawn)
READOUT NAME: TGI
REPORTED VALUE: 0.443 µM
//
COMPOUND: CCC(=O)N(c1ccccc1)C(C)CN1CCC(O)(c2ccccc2)CC1 (stereo not drawn)
READOUT NAME: TGI
REPORTED VALUE: > 100 µM
//
COMPOUND: C=C1C(=O)O[C@H]2[C@H]1CC/C(COC(=O)NCCc1ccc(OC)cc1)=C\CC[C@@]1(C)O[C@@H]21
READOUT NAME: TGI
REPORTED VALUE: 4.79 µM
//
COMPOUND: CCCCCCCCCC(=O)OCC1(CO)C/C(=C/CC(C(C)C)C(C)C)C(=O)O1 (stereo not drawn)
READOUT NAME: TGI
REPORTED VALUE: > 100 µM
//
COMPOUND: CC1CCCc2c(-c3ccc(Cl)cc3)nc(N)c(C#N)c21 (stereo not drawn)
READOUT NAME: TGI
REPORTED VALUE: > 100 µM
//
COMPOUND: CC1(C)CCSC(/C=C/c2ccccc2)=N1
READOUT NAME: TGI
REPORTED VALUE: 27.6 µM
//
COMPOUND: CCn1c(=O)c2c(=O)[nH][nH]c2c2ccccc21
READOUT NAME: TGI
REPORTED VALUE: > 100 µM
//
COMPOUND: COC(=O)C1=CN(CC2=CC(=O)C(C)=CC2=O)C=C(C(=O)OC)C1c1cccc(OC)c1OC
READOUT NAME: TGI
REPORTED VALUE: 55.2 µM
//
COMPOUND: COc1ccc(NC2=C(Sc3nc(C)cc(C)n3)C(=O)N(Cc3ccccc3)C2=O)cc1Cl
READOUT NAME: TGI
REPORTED VALUE: > 160 µM
//
COMPOUND: Oc1cn(-c2ccc(Cl)cc2)nc1-c1nnc(Nc2ccccc2)o1
READOUT NAME: TGI
REPORTED VALUE: 33.9 µM
//
COMPOUND: O=C(CNC(=O)c1cccc2ccccc12)Nc1ccccc1Oc1cccc(O)c1
READOUT NAME: TGI
REPORTED VALUE: > 25 µM

---

Listing of entries alongside the reported TGI.
System: UO-31 renal
TEST SUMMARY: NCI tumour cell line growth inhibition, 48 h
READOUT NAME: TGI

COMPOUND: COc1cc2c(cc1OC)-c1c(cnn1C1OC(COC(C)=O)C(OC(C)=O)C(OC(C)=O)C1OC(C)=O)CC2 (centres undefined)
REPORTED VALUE: > 100 µM

COMPOUND: CCNC(=O)C(O)C1(O)CCC2[C@@H]3CCC4=CC(=O)C=C[C@]4(C)C3[C@@H](O)C[C@@]21C (some centres undefined)
REPORTED VALUE: > 100 µM

COMPOUND: COc1cc(C)cc2c1OC(c1ccccc1)CC2=O (centres undefined)
REPORTED VALUE: > 100 µM

COMPOUND: CCOC(=O)/C(C#N)=C(O)/C(=C/c1ccccc1Cl)NC(=O)c1ccccc1
REPORTED VALUE: > 100 µM

COMPOUND: O=C(/C=C/c1ccc(O)c(O)c1)NC(CO)C(=O)O (centres undefined)
REPORTED VALUE: > 100 µM

COMPOUND: CCCCCCCCCCCCCCCCC(C(=O)O)C(O)(CC(=O)O)C(=O)O (centres undefined)
REPORTED VALUE: 45.4 µM

COMPOUND: O=C(CNC(=O)c1cccc2ccccc12)Nc1ccccc1Oc1cccc(O)c1
REPORTED VALUE: > 25 µM

COMPOUND: CC[C@@]1(O)C(=O)NCc2c1cc1n(c2=O)Cc2cc3cc4c(cc3nc2-1)OCO4
REPORTED VALUE: > 33.1 µM

COMPOUND: N#Cc1nc(-c2cccc(Br)c2)cc(-c2ccc(Nc3nc(N4CCCCC4)nc(N4CCCCC4)n3)cc2)c1N
REPORTED VALUE: 5.47 µM

---

Tested on: SK-MEL-5 melanoma
TEST SUMMARY: NCI tumour cell line growth inhibition, 48 h

MOLECULE: CCOC(=O)C1CCC/C1=N\N=C(N)N (centres undefined) (tested in a mixture with another compound)
TGI: > 100 µM
--
MOLECULE: COC(=O)c1c2c(c(C)[n+]([O-])c1C)C(=O)C=C(NCc1ccc(Cl)cc1)C2=O
TGI: 0.337 µM
--
MOLECULE: C[C@]12CC[C@H]3[C@@H](CC=C4C[C@@H](O)CC[C@@]43C)[C@@H]1C/C(=C\c1cccc(OCCN3CCOCC3)c1)[C@@H]2O
TGI: 23.3 µM
--
MOLECULE: Cc1ccccc1C(C#N)/C(=N/NC(=O)c1cc2ccccc2cc1O)C(=O)Nc1cccc(Cl)c1 (centres undefined)
TGI: 27.4 µM

---

Tested on: NCI-H226 lung
TEST SUMMARY: NCI tumour cell line growth inhibition, 48 h; in the data active = GI50 below about 0.43 µM; inactive = the rest
*1 amine or outer side, *2 acyl side, *3 side chain or, on linkers, in order; H or OH if unused. Where a SMILES comes first, the peptide text is derived from it. Bridges are numbered along the chain shown (N, C = ends). [ ]: non-standard residue; d: D form. ξ: configuration not given here. X4 = CCC(C)C(N[*:1])C(O)CC(=O)O[C@H](C(=O)C(C)C(=O)[*:2])C(C)C; NMeY = CN[C@@H](Cc1ccc(O)cc1)C(=O)O; X9 = O=C([C@@H]1CC(O)CN1[*:1])[*:2]; ξNMeL = CNC(CC(C)C)C(=O)O; ξT = CC(O)C(N)C(=O)O
Classes used: Y for active, N for inactive

COMPOUND: C#Cc1cccc(NC(=O)Nc2ccc(NC(=O)CCl)cc2)c1
DISCRETE LABEL: N
--
COMPOUND: COc1ccc(NC2=C(Sc3nc(C)cc(C)n3)C(=O)N(Cc3ccccc3)C2=O)cc1Cl
DISCRETE LABEL: N
--
COMPOUND: c1ccc(-c2nc(Nc3ccc(-c4nc5ccccc5[nH]4)cc3)nc(N3CCOCC3)n2)cc1
DISCRETE LABEL: N
--
COMPOUND: O=c1cc/c(=N\Nc2ccccc2)c(=O)/c1=N/Nc1ccccc1
DISCRETE LABEL: N
--
COMPOUND: S=C(Nc1ccccc1)c1ccccn1
DISCRETE LABEL: N
--
COMPOUND: Cc1ccc(NC(=O)c2ccnc(C(F)(F)F)c2)cc1-c1cc(OCCO)nc(N2CCOCC2)c1
DISCRETE LABEL: N
--
COMPOUND: COc1cc2c(/C=C3/C(=O)Nc4ccccc43)c(Cl)n(Cc3ccccc3)c2cc1C
DISCRETE LABEL: N
--
COMPOUND: CCC(C)C1NC(=O)C(NC(=O)C(CC(C)C)N(C)C(=O)[C@@H]2CC(O)CN2)C(C)OC(=O)[C@H](Cc2ccc(OC)cc2)N(C)C(=O)[C@@H]2CCCN2C(=O)[C@H](CC(C)C)NC(=O)C(C)C(=O)[C@H](C(C)C)OC(=O)CC1O (some centres not stated) (H-[X9][ξNMeL][ξT][X4]LP[NMeY](Me); ester 3-C)
DISCRETE LABEL: Y
--
COMPOUND: COC(=O)c1c2c(c(C)[n+]([O-])c1C)C(=O)C=C(NCc1ccc(Cl)cc1)C2=O
DISCRETE LABEL: N
--
COMPOUND: C[C@]12CC[C@H]3[C@@H](CC=C4C[C@@H](O)CC[C@@]43C)[C@@H]1C/C(=C\c1cccc(OCCN3CCOCC3)c1)[C@@H]2O
DISCRETE LABEL: N
--
COMPOUND: CN(C)c1cccc2[nH]c(-c3[nH]ncc3Nc3ccnc(N)n3)nc12
DISCRETE LABEL: Y
--
COMPOUND: CNC(=O)c1cc(Oc2ccc3nc(NC(=O)Nc4ccc(Cl)c(Cl)c4)sc3c2)ccn1
DISCRETE LABEL: N

---

Listing of entries alongside the reported TGI.
System: SK-MEL-5 melanoma
TEST SUMMARY: NCI tumour cell line growth inhibition, 48 h

COMPOUND: Cc1c(CCN=P(c2ccccc2)(c2ccccc2)c2ccccc2)c(=O)n2c([nH]c3ccccc32)c1C#N
INEQUALITY SIGN: >
TGI (µM): 10
//
COMPOUND: CCn1c(=O)c2c(=O)[nH][nH]c2c2ccccc21
INEQUALITY SIGN: >
TGI (µM): 100
//
COMPOUND: Fc1ccc(C(OCCN2CCC3CCC(C2)N3CCCc2ccccc2)c2ccc(F)cc2)cc1 (stereo not given)
INEQUALITY SIGN: =
TGI (µM): 3.22
//
COMPOUND: O=[N+]([O-])c1cccc(-c2nc3sccn3c2-c2ccnc(NCCCNS(=O)(=O)c3ccc(F)cc3)n2)c1
INEQUALITY SIGN: =
TGI (µM): 2.45
//
COMPOUND: CCOC(=O)CNC(=O)C(CSC(=O)N(O)c1ccc(Br)cc1)NC(=O)CCC(N)C(=O)OCC (stereo not given)
INEQUALITY SIGN: >
TGI (µM): 50
